pIC50: −log10 of the molar value.
Reported pIC50 on UniProt:P25779 for assorted molecules, compiled from publications.
Threshold check on pIC50: at or above 5 gives met, strictly below gives not met.

>>> assigned_class("CSc1cccc(NC(=O)Nc2sc3ccccc3c2Cl)c1")
"met"
>>> assigned_class("O=C(CCc1ccccc1Br)NCCc1nc2ccccc2[nH]1")
"not met"

We next turn to a different molecule, shown below.
Query string: Textbook exercise: given the entry NC(=S)N/N=C/c1cccc(Cl)c1 , state whether its pIC50 is greater than or equal to 5.
Result string: not met

###

Reported pIC50 on UniProt P25779 for assorted molecules, compiled from publications.
Answers are plain numbers, as −log10 of the molar value.

Previously resolved entries follow.
>>> observed_value("CN(C)c1ccc(/C=N/NC(=O)c2ccccc2)c2ccccc12")
6.30
>>> observed_value("CC(C)(F)C[C@H](N[C@@H](c1ccc(-c2ccc(S(C)(=O)=O)cc2)cc1)C(F)(F)F)C(=O)N[C@H](C#N)CCc1ccccc1")
6.29
>>> observed_value("CSc1ccc(/C=N/NC(=O)c2cccc(C)c2O)s1")
5.00
>>> observed_value("O=C(N[C@@H](Cc1ccccc1)C(=O)N[C@@H](CCc1ccccc1)C(=O)[C@@H]1CO1)OCc1ccccc1")
8.00
>>> observed_value("CC1(C)CCc2c(cc(O)c(C(=O)CCc3ccc4c(c3)CC3C(C)(C)CCCC3(C)O4)c2O)O1 (stereo unspecified)")
5.06

Provide reported pIC50 for each item, in the same order as listed.
1. COc1cc(OC)cc(C(=O)N/N=C/c2ccc(C(=O)O)o2)c1
2. C=CCn1c(-c2ccccc2)cs/c1=N\c1sc2c(c1C(=O)OCC)CCCC2
3. COc1ccc(C(=O)N/N=C/c2ccoc2)c(OC)c1
4. C=CCN1C(=O)C(CC(=O)O)S/C1=N\c1sc2c(c1C(=O)OCC)CCCC2 (stereo unspecified)

Result string:
[5.00, 5.62, 3.78, 4.30]

Provide reported pIC50 for each item, in the same order as listed.
1. Clc1ccc2[nH]c3c(NCCCN4CCOCC4)ncnc3c2c1
2. CC1(C)CCc2cc(CCC(=O)c3c(O)cc4c(c3O)CCC(C)(C)O4)ccc2O1

Result string:
1. 5.60
2. 4.67
